Measured Activity class for HIV-1-LAI test (pEC50 values) accompanies every entry in the list below.
# System: wild type laboratory HIV strain (HIV-1 strain LAI)
# Assay notes: microbe, parasite or virus in culture
# Format: cell-based
# Test parameters: MT4-LTR-EGFP cells, three days incubation, GFP signal; average where more than one run
Endpoint label: Activity class for HIV-1-LAI test (pEC50 values)

{"Molecule": "CN(C)CCN(C)Cc1ccc(C2=NN3C(C(=O)c4ccc(C#N)cc4)Oc4ccccc4C3C2)cc1 (stereo not shown)", "Reported value": 6.41}
{"Molecule": "COc1ccc(CN(C)Cc2ccc(C3=NN4C(C(=O)c5ccc(S(C)(=O)=O)cc5)Oc5ccccc5C4C3)cc2)cc1 (stereo not shown)", "Reported value": 8.47}
{"Molecule": "COc1ccc(CN(C)Cc2ccc(C3=NN4C(C(=O)c5ccc(C(C)(C)C)cc5)Oc5ccccc5C4C3)cc2)cc1 (stereo not shown)", "Reported value": 7.28}
{"Molecule": "N#Cc1ccc(C(=O)C2Oc3ccccc3C3CC(c4ccc(CCCCNCc5ccncc5)cc4)=NN23)cc1 (stereo not shown)", "Reported value": 5.23}
{"Molecule": "CN(Cc1ccc(C2=NN3C(C(=O)c4ccc(C#N)cc4)Oc4ccccc4C3C2)cc1)C1CCCC1 (stereo not shown)", "Reported value": 8.32}
{"Molecule": "COc1ccc(CN(C)Cc2ccc(C3=NN4C(C(=O)c5ccc(C#N)cc5)Oc5ccccc5C4C3)cc2)cc1 (stereo not shown)", "Reported value": 7.81}
{"Molecule": "CN(C)CCN(C)CCCc1ccc(C2=NN3C(C(=O)c4ccc(C#N)cc4)Oc4ccccc4C3C2)cc1 (stereo not shown)", "Reported value": 5.42}

###

# Test system: wild type laboratory HIV strain (HIV-1 strain LAI)
# Assay notes: microbe, parasite or virus in culture
# Assay type: cell-based
# Test parameters: MT4-LTR-EGFP cells, three days incubation, GFP signal; average where more than one run
Endpoint label: Activity class for HIV-1-LAI test (pEC50 values)

{"Compound": "N#Cc1ccc(C(=O)C2Oc3ccccc3C3CC(c4ccc(CCCCNCc5ccccn5)cc4)=NN23)cc1 (stereo not shown)", "Reported value": 5.28}
{"Compound": "COc1ccc(CN(C)CCc2ccc(C3=NN4C(C(=O)c5ccc(C#N)cc5)Oc5ccccc5C4C3)cc2)cc1 (stereo not shown)", "Reported value": 7.08}
{"Compound": "CN(CCCCc1ccc(C2=NN3C(C(=O)c4ccc(C#N)cc4)Oc4ccccc4C3C2)cc1)C1CCCC1 (stereo not shown)", "Reported value": 5.36}
{"Compound": "N#Cc1ccc(C(=O)C2Oc3ccccc3C3CC(c4ccc(CNCc5ccccc5)cc4)=NN23)cc1 (stereo not shown)", "Reported value": 7.58}
{"Compound": "CN(C)CCN(C)CCc1ccc(C2=NN3C(C(=O)c4ccc(C#N)cc4)Oc4ccccc4C3C2)cc1 (stereo not shown)", "Reported value": 6.25}
{"Compound": "N#Cc1ccc(C(=O)C2Oc3ccccc3C3CC(c4ccc(CNCCN5CCCC5)cc4)=NN23)cc1 (stereo not shown)", "Reported value": 6.55}
{"Compound": "CN(C)c1ccc(CNCc2ccc(C3=NN4C(C(=O)c5ccc(C#N)cc5)Oc5ccccc5C4C3)cc2)cc1 (stereo not shown)", "Reported value": 6.12}
{"Compound": "COc1ccc(CN(C)CCCCc2ccc(C3=NN4C(C(=O)c5ccc(C#N)cc5)Oc5ccccc5C4C3)cc2)cc1 (stereo not shown)", "Reported value": 5.38}
{"Compound": "N#Cc1ccc(C(=O)C2Oc3ccccc3C3CC(c4ccc(CNCc5ccccn5)cc4)=NN23)cc1 (stereo not shown)", "Reported value": 7.13}
{"Compound": "CCN(CC)Cc1ccc(C2=NN3C(C(=O)c4ccc(S(C)(=O)=O)cc4)Oc4ccccc4C3C2)cc1 (stereo not shown)", "Reported value": 7.9}
{"Compound": "CCN(CC)CCc1ccc(C2=NN3C(C(=O)c4ccc(C#N)cc4)Oc4ccccc4C3C2)cc1 (stereo not shown)", "Reported value": 7.16}
{"Compound": "CCN(CC)Cc1ccc(C2=NN3C(C(=O)c4ccc(C(C)(C)C)cc4)Oc4ccccc4C3C2)cc1 (stereo not shown)", "Reported value": 7.64}
{"Compound": "CCN(CC)CCCCc1ccc(C2=NN3C(C(=O)c4ccc(C#N)cc4)Oc4ccccc4C3C2)cc1 (stereo not shown)", "Reported value": 5.39}
{"Compound": "CN(C)CCN(C)CCCCc1ccc(C2=NN3C(C(=O)c4ccc(C#N)cc4)Oc4ccccc4C3C2)cc1 (stereo not shown)", "Reported value": 5.52}
{"Compound": "N#Cc1ccc(C(=O)C2Oc3ccccc3C3CC(c4ccc(CCCNCc5ccccc5)cc4)=NN23)cc1 (stereo not shown)", "Reported value": 5.56}
{"Compound": "CN(CCCc1ccc(C2=NN3C(C(=O)c4ccc(C#N)cc4)Oc4ccccc4C3C2)cc1)C1CCCC1 (stereo not shown)", "Reported value": 5.76}
